target.of.assay: T1, P9SHb
T1 chain: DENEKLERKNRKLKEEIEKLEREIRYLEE
assay.name: two-hybrid library CCNG1;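 note: natural log of median RNA to DNA barcode read ratio; higher means stronger binding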
assay.readout: interaction score

Previously resolved entries follow.
DKNEELKRENEELERKIERLKEKIRYLKE [P10SHb]    1.97
DENEKLERKNRKLKEEIEKLEREIRYLEE [P9SHb]    -0.553
DKIEELKRKNRELKEKNKELKEKIYRLKE [P2SHb]    -1.55

[I] DEIERLERENEKLERENERLEREIRWLEE [P1SHb]
[II] DENEKLEREIRELEREIEKLEKKNRYLKE [P11SHb]
[III] DENRELEEKIRELKEKNEELKREIKYLEE [P5SHb]
[IV] DKNRELKEKIERLKEKIRELKEENRYLEE [P12SHb]
Query: Falling order of interaction score, please. API: response body holds the labels in the requested order.
Reply: IV, II, III, I
